Measured IC50 values are reported for all entries that follow.
tested on: Aβ production in 293 751 SWE and CHO 751 SWE cells (transfected with APP-751 Swedish mutation); assay: Aβ production inhibition activity in cells (Aβ ELISA of conditioned media, normalized for cytotoxicity by MTT); format: cell-based; settings: 2 h pretreatment + 2 h incubation

# COMPOUND, IC50 / µM
rows = [
    ("COc1cccc(CNC(=S)Nc2ccc(Oc3ccc(C(C)(C)C)cc3)cc2)c1", 21.2),
    ("Cc1nnc(NC(=O)Nc2ccc(F)c(Cl)c2)s1", 9.8),
    ("CCCc1c(CSC(=S)NCc2ccccc2)ccc(C(C)=O)c1O", 2),
    ("CC(C)(C)c1ccc(Oc2ccc(NC(=S)NCc3ccc(F)c(Cl)c3)cc2)cc1", 5),
    ("CCCCCCNC(=S)N(O)C(C)c1cccc(NC(=O)c2ccc(C(C)(C)C)cc2)c1 (centres unmarked)", 13),
]

====

system: Aβ production in 293 751 SWE and CHO 751 SWE cells (transfected with APP-751 Swedish mutation); assay: Aβ production inhibition activity in cells (Aβ ELISA of conditioned media, normalized for cytotoxicity by MTT); type: cell-based; settings: 2 h pretreatment + 2 h incubation
Measured IC50 values are reported for all entries that follow.
METRIC: IC50 (µM)

# MOLECULE, RELATION_OPERATOR, RECORDED_NUMBER
rows = [
    ("FC(F)(F)c1cc(NC(=S)Nc2ccc(Cl)c(C(F)(F)F)c2)ccc1Cl", "=", 2.8),
    ("FC(F)(F)c1cccc(NC(=S)Nc2ccc(Cl)c(Cl)c2)c1", "=", 4.7),
    ("CC(c1cccc(Oc2ccc(C(C)(C)C)cc2)c1)N(O)C(=S)NCc1ccccc1 (centres unmarked)", "=", 11.2),
    ("CC(C)(C)c1ccc(Oc2ccc(NC(=S)NCc3ccccc3)cc2)cc1", "=", 16.4),
    ("CCCCCCNC(=S)N(O)Cc1cccc(NC(=O)c2ccc(C(C)(C)C)cc2)c1", "=", 18.6),
    ("CCCCCCNC(=S)N(O)Cc1ccc(COc2ccc(C(C)(C)CC)cc2)cc1", "=", 24.8),
    ("CCCC(c1cccc(Oc2ccc(C(C)(C)C)cc2)c1)N(O)C(=S)NCc1cccc(C)c1 (centres unmarked)", "=", 9),
    ("CC(C)(C)c1cccc(Oc2ccc(NC(=S)NCc3cccc(C(F)(F)F)c3)cc2)c1", "=", 8.6),
    ("CCCCCCNC(=S)N(O)Cc1ccccc1Oc1ccc(C(C)(C)C)cc1", "=", 34),
    ("CC(C)(C)c1ccc(SCc2ccc(CN(O)C(=S)Nc3ccc(Cl)c(C(F)(F)F)c3)cc2)cc1", "=", 4.6),
    ("CC(C)(C)c1ccc(Oc2cccc(CNC(=S)NCc3ccc(Cl)c(C(F)(F)F)c3)c2)cc1", "=", 4),
    ("COc1c(C(C)(C)C)cc(COc2ccc(CN(O)C(=S)NCc3ccccc3)cc2)cc1C(C)(C)C", "=", 5.9),
    ("Cc1ccc(CNC(=S)N(O)C(C)c2cccc(Oc3ccc(C(C)(C)C)cc3)c2)cc1 (centres unmarked)", "=", 15.6),
    ("CC(C)(C)c1ccc(Oc2ccc(NC(=S)NCc3ccccn3)cc2)cc1", "=", 15.6),
    ("CCCc1cc(C(C)(C)C)ccc1Oc1cccc(CN(O)C(=S)NCc2ccccc2)c1", "=", 4.5),
    ("CC(c1cccc(Oc2ccc(C(C)(C)C)cc2)c1)N(O)C(=S)Nc1cccc2ccccc12 (centres unmarked)", ">", 20),
    ("O=C(Nc1ccc(Cl)c(Cl)c1)Nc1nc2ccccc2s1", "=", 10.3),
]
